meta.source: ChEMBL document CHEMBL5230168

test: Cytotoxicity against human BJ cells assessed as inhibition of cell growth incubated for 72 hrs by MTT assay; format: toxicity, cell-based
Measured IC50 at 72 h, listed per entry.
Record the value in nM, omitting the unit from your answer.

Query string: Endpoint output: IC50 at 72 h of `CCOC(=O)[C@]12CCC(C)(C)C[C@H]1C1=CC[C@@H]3[C@@]4(C)C(C=O)=C[C@@](C)(CO)[C@@H]4CC[C@@]3(C)[C@]1(C)CC2` . Value?
Result string: 3060

Query string: Next up: `CCCCOC(=O)[C@]12CCC(C)(C)C[C@H]1C1=CC[C@@H]3[C@@]4(C)C(C=O)=C[C@@](C)(CO)[C@@H]4CC[C@@]3(C)[C@]1(C)CC2`
Result string: 2790
